# experimental-target: T1, human TGFβ1 (human, UniProt P01137 279-390)
# T1 construct: also called TGFβ1 homodimer
# T1 sequence (P01137 279-390 limits assumed): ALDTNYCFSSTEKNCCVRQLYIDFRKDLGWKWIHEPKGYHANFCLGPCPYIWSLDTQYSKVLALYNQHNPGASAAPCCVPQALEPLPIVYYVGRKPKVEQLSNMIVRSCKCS
# assay-method-text: Biacore off-rate vs wt GC1008, 50 nM

binder | kd var/kd wt
D56L (antibody, V domains shown, GC1008 IgG4 variant) VH: QVQLVQSGAEVKKPGSSVKVSCKASGYTFSSNVISWVRQAPGQGLEWMGGVIPIVLIANYAQRFKGRVTITADESTSTTYMELSSLRSEDTAVYYCASTLGLVLDAMDYWGQGTLVTVSS VL: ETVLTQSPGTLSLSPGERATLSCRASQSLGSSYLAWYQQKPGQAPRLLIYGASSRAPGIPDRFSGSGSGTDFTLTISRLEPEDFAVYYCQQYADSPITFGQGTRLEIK | 1.3
S30F (antibody, V domains shown, GC1008 IgG4 variant) VH: QVQLVQSGAEVKKPGSSVKVSCKASGYTFFSNVISWVRQAPGQGLEWMGGVIPIVDIANYAQRFKGRVTITADESTSTTYMELSSLRSEDTAVYYCASTLGLVLDAMDYWGQGTLVTVSS VL: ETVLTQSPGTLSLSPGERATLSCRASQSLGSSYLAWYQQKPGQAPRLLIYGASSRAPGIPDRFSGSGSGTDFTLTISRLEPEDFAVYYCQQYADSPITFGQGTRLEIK | 1
N32Q (antibody, V domains shown, GC1008 IgG4 variant) VH: QVQLVQSGAEVKKPGSSVKVSCKASGYTFSSQVISWVRQAPGQGLEWMGGVIPIVDIANYAQRFKGRVTITADESTSTTYMELSSLRSEDTAVYYCASTLGLVLDAMDYWGQGTLVTVSS VL: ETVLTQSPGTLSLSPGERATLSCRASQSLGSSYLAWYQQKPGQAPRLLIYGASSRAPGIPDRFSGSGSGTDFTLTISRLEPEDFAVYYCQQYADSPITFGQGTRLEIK | 0.8
